Test: rat acute oral toxicity
Conditions: in vivo
Description: […]The data set underlying the modeling effort for this project was initially compiled by NICEATM and U.S. EPA’s CCTE. Briefly, LD50 data were collected from rat acute oral systemic toxicity tests, including limit tests, ranges/confidence intervals, and discrete LD50 values. The full data set included 21,200 LD50 entries for 15,688 substances. […]
MEASURED QUANTITY: log10 LD50 (log10 of the value in mg/kg)
// do not treat as linear: log10 of LD50, unit mg/kg

molecule=O=[N+]([O-])/N=C1\NCCN1Cc1ccc(Cl)nc1 meas_value=2.61
molecule=O=C1NC(=O)C(c2ccccc2)(c2ccccc2)N1 meas_value=2.40
molecule="NC1CCC(CC2CCC(N)CC2)CC1 (configuration not stated)" meas_value=2.54
molecule=CCOC(=O)CCl meas_value=1.70
molecule=C=C(C)C(=O)O meas_value=3.03
molecule="CC(C)C(Nc1ccc(C(F)(F)F)cc1Cl)C(=O)OC(C#N)c1cccc(Oc2ccccc2)c1 (configuration not stated)" meas_value=2.42
molecule=c1ccc(CNc2[nH]cnc3ncnc2-3)cc1 meas_value=3.11
molecule=C/C=C\CC1=C(C)[C@@H](OC(=O)[C@@H]2[C@@H](C=C(C)C)C2(C)C)CC1=O meas_value=3.01
molecule=CC(C)CCCCCCCO meas_value=3.81
molecule=CCOC(=O)CC(=O)C(F)(F)F meas_value=2.88

Quick request: log10 LD50 for each listed item, please.
1. CC[Si](Cl)(Cl)CC
2. CCOP(=O)(SC(C)CC)SC(C)CC (configuration not stated)
3. CCCOP(=O)(OCCC)Oc1ccc(SC)cc1
4. CCOC(=O)CC(SP(=S)(OC)OC)C(=O)OCC (configuration not stated)
5. CCCCC(C#N)(Cn1cncn1)c1ccc(Cl)cc1 (configuration not stated)
6. Cc1cc(C)cc(N)c1
7. Oc1nc2ccccc2[nH]1
8. c1ccncc1

Reply:
[2.78, 1.57, 1.79, 3.08, 3.20, 2.85, 3.29, 2.95]

* * *

For each record, write down the corresponding GHS category.
Test: GHS categories as the set defines them, by LD50: 1 up to 5, 2 up to 50, 3 up to 300, 4 up to 2000, 5 above 2000 mg/kg
Settings: rat; in vivo; po
One number for each entry.

given_smiles=COC(=O)c1c(C(F)F)nc(C(F)(F)F)c(C2=NCCS2)c1CC(C)C meas_value=5
given_smiles=CCCc1c(Cc2ccc(-c3ccccc3-c3nn[nH]n3)cc2)c(=O)nc2nc(N)[nH]n12 meas_value=4
given_smiles=O=C(Nc1ccc(Cl)cc1)Nc1ccc(Cl)c(Cl)c1 meas_value=5

Quick request: GHS category for each listed item, please.
1. CO/N=C(/C(=O)N[C@@H]1C(=O)N2C(C(=O)O)=C(COC(C)=O)CS[C@H]12)c1csc(N)n1
2. Brc1cnc2[nH]ccc2c1
3. COCOC1CCCCCCCCCCC1
4. CCCc1nc2ccnn2c(NCCN2CCOCC2)c1Cc1ccc(-c2ccccc2-c2nn[nH]n2)cc1
5. C[C@H]1C[C@@H]2[C@H]([C@@H](O)C[C@@]3(C)[C@H]2CC[C@]3(O)C(=O)CO)[C@@]2(C)C=CC(=O)C=C12
6. CCCc1c(Cc2ccc(-c3ccccc3C(N)=O)cc2)c(=O)nc2[nH]ncn12

Reply:
[5, 5, 5, 4, 5, 4]

Quick request: GHS category for each listed item, please.
1. CCOC(C)(C)C
2. C=C(CC)CCCC(C)(C)OC(C)=O

Reply:
1. 5
2. 5
